property-name: Ki

Please report Ki with 5-hydroxytryptamine receptor 4 (Homo sapiens, UniProt Q13639) for item O=C(Cc1ccccc1)NC1CCN(CCCN2C(=O)COc3ccccc32)CC1 .
Sequence (Q13639 whole entry): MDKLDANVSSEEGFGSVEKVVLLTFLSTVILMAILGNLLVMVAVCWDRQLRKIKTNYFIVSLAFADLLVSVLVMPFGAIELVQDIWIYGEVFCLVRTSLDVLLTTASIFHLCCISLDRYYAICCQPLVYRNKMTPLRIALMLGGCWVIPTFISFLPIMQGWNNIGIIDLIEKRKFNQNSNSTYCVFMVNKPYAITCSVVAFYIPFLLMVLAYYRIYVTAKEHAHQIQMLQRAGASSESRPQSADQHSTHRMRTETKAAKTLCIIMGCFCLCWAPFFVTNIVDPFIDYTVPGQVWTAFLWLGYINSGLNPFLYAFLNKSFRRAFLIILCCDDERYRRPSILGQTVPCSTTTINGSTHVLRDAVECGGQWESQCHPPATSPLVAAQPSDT
≥ 1000 nM

###

- test-system: UniProt:P25929
- Sequence (P25929 whole entry): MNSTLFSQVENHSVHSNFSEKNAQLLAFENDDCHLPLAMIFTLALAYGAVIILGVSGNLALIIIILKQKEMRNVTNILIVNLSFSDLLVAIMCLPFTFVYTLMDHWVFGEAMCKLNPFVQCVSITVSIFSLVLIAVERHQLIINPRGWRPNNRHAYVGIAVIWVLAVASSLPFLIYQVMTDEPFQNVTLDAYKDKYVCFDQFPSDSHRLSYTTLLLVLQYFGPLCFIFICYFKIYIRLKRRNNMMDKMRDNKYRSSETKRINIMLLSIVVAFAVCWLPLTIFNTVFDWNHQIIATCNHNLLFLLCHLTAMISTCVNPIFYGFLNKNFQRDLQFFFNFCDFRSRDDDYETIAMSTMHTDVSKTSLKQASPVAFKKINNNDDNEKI
- assay-comment: Binding affinity to human neuropeptide Y1 receptor by radioligand displacement assay
pKi: −log10 of the molar value.
property-name: pKi

Note down pKi recorded for O=C(Cc1ccccc1)NC1CCN(CCCN2C(=O)COc3ccccc32)CC1
≤ 6.00

###

- assay-comment: Binding affinity to human muscle-type nicotinic acetylcholine receptor by radioligand displacement assay
pKi: −log10 of the molar value.
property-name: pKi

Note down pKi recorded for O=C(Cc1ccccc1)NC1CCN(CCCN2C(=O)COc3ccccc32)CC1
≤ 6.00

###

- assay-comment: Binding affinity to L-type Ca2+ channel DHP binding site by radioligand displacement assay
property-name: Ki

Note down Ki recorded for O=C(Cc1ccccc1)NC1CCN(CCCN2C(=O)COc3ccccc32)CC1
≥ 1000 nM

###

- test-system: Alpha-1D adrenergic receptor (Homo sapiens)
- Sequence (P25100 whole entry): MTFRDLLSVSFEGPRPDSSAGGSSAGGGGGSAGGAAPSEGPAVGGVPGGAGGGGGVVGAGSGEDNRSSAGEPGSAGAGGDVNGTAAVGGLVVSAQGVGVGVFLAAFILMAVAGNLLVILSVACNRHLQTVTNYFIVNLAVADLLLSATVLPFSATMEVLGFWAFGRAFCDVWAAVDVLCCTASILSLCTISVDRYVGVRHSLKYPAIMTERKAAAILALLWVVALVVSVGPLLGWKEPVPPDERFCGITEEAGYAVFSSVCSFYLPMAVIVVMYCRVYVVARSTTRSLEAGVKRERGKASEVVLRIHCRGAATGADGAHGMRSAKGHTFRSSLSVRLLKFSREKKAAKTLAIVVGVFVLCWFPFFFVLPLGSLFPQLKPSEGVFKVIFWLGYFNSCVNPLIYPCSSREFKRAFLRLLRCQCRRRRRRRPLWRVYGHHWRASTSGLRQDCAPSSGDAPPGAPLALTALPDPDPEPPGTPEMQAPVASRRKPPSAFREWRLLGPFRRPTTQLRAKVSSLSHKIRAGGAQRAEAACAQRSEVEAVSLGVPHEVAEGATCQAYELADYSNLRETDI
- assay-comment: Binding affinity to human adrenergic Alpha-1D receptor by radioligand displacement assay
property-name: pKi
The meaning of pKi here: minus log10 of the concentration in molar units.

Note down pKi recorded for Cc1ccccc1CN1CCC(N2CCC(n3c(=O)[nH]c4ccccc43)CC2)CC1
6.54

###

- test-system: Muscarinic acetylcholine receptor M2 (Homo sapiens)
- assay-comment: Agonist activity at human muscarinic M2 receptor expressed in CHO-K1 cells coexpressing Galpha16 subunit assessed as increase of acetylcholine-induced calcium flux at 10 uM by FLIPR assay relative to acetylcholine
- Format: functional, cell-based
property-name: Emax (%)
Hi! Could you send only the number? It should be in %, unit omitted.

Please report Emax with Muscarinic acetylcholine receptor M2 (Homo sapiens) for item Clc1ccc2c(c1)N=C(N1CCNCC1)c1ccccc1N2 .
3

Please report Emax with Muscarinic acetylcholine receptor M2 (Homo sapiens) for item O=C(Cc1ccccc1)NC1CCN(CCCN2C(=O)COc3ccccc32)CC1 .
0

Please report Emax with Muscarinic acetylcholine receptor M2 (Homo sapiens) for item COc1cccc(CC(=O)NC2CCN(CCCN3C(=O)COc4ccccc43)CC2)c1 .
0

Please report Emax with Muscarinic acetylcholine receptor M2 (Homo sapiens) for item CCCCCCOc1nsnc1C1=CCCN(C)C1 .
9

Please report Emax with Muscarinic acetylcholine receptor M2 (Homo sapiens) for item COc1ccc(CC(=O)NC2CCN(CCCN3C(=O)CCc4cc(F)c(F)cc43)CC2)cc1OC .
2
